biological target: UniProtKB P21730; assay: FLIPR assay: inhibition of C5a-mediated calcium mobilization; settings: stable cell line over expressing human C5aR & Gα15, human C5a at EC50 (0.1-0.25 nM)
Sequence (P21730 whole entry): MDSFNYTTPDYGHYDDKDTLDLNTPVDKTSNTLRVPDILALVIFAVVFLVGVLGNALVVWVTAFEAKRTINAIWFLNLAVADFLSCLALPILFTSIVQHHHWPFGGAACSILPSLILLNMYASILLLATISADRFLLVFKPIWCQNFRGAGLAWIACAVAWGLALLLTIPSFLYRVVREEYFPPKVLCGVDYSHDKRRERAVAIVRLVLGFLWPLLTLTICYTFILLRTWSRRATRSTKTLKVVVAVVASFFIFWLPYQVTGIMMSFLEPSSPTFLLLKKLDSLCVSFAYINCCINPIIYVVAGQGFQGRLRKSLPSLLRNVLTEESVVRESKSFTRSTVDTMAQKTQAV
Measured parameter: IC50 (nM)

Compound: Cc1ccc(C(C)C)cc1N1CCc2nc(-c3c(C)ccc4[nH]nc(C)c34)nc(N3CC[C@@H](N(C)C)C3)c2C1
Units of measure: nM
IC50: 2
//
Compound: Cc1ccc(C(C)C)cc1N1CCc2nc(-c3cccc4[nH]cc(C)c34)nc(N3CCN(CC(N)=O)C[C@H]3C)c2C1
Units of measure: nM
IC50: 1
//
Compound: CO[C@@H]1CN(c2nc(-c3c(C)ccc4[nH]nc(C)c34)nc3c2CN(c2c(Cl)c(C4CC4)nn2C)CC3)[C@H]1C (racemic)
Units of measure: nM
IC50: 4
//
Compound: CO[C@@H]1CCN(c2nc(-c3c(C)ccc4[nH]nc(C)c34)nc3c2CN(c2cc(C(C)C)ccc2C)CC3)CC1(C)C
Units of measure: nM
IC50: 1
//
Compound: CO[C@@H]1CCN(c2nc(-c3c(C)ccc4[nH]nc(C)c34)nc3c2CN(c2cc(Cl)ccc2C)CC3)[C@H](C)C1
Units of measure: nM
IC50: 1
//
Compound: CO[C@@H]1CCN(c2nc(-c3c(C)cccc3C)nc3c2CN(c2cc(Cl)ccc2C)CC3)[C@H](C)C1
Units of measure: nM
IC50: 7
//
Compound: Cc1ccc(C(C)C)cc1N1CCc2nc(-c3c(C)ccc4[nH]nc(C)c34)nc(N3CC(N(C)C)C3)c2C1
Units of measure: nM
IC50: 1
//
Compound: Cc1ccc2[nH]nc(C)c2c1-c1nc2c(c(N3CC[C@H]4OC[C@H]4C3)n1)CN(c1c(Cl)c(C3CC3)nn1C)CC2 (racemic)
Units of measure: nM
IC50: 8
//
Compound: Cc1ccc(C(C)C)cc1N1CCc2nc(-c3c(C4CC4)cnc4[nH]ccc34)nc(N3CCCC(C)(C)C3)c2C1
Units of measure: nM
IC50: 164
//
Compound: Cc1cc(-c2c(C)ccc3[nH]ncc23)nc2c1CN(c1cc(C3CC3)nn1C)CC2
Units of measure: nM
IC50: 868

I = Cc1ccccc1N1CCc2nc(-c3c(C)cccc3C)nc(N(C)CC(C)(C)O)c2C1
II = Cc1c[nH]c2cccc(-c3nc4c(c(N5CCN(CC(N)=O)[C@H](C)C5)n3)CN(c3ccccc3C(F)(F)F)CC4)c12
Returns: the argument ( I or II ) having the larger IC50. Your answer should be the label attached to the chosen record.
II

I = COc1nc(-c2c(C)ccc3[nH]nc(Cl)c23)nc2c1CN(c1cc(C(C)C)ccc1C)CC2
II = CCc1cccc(CC)c1-c1cc(C)c2c(n1)CCN(c1cc(C3CC3)ccc1C)C2
Lab note: check whether I or II shows the higher recorded IC50. Write down the label attached to your selection.
II

* * *

system: CD11b; experiment: Human whole blood CD11b up-regulation assay; format: cell-based; settings: Homo sapiens, 2 nM human C5a, CD15+ granulocytes, read-out: hCD11b IC50
pIC50: −log10 of the molar value.
Measured parameter: pIC50

Worked examples follow.
Chemical string: Cc1ccc(C(F)(F)F)cc1N1CCc2nc(-c3cccc4[nH]cc(C)c34)nc(N3CCN(CC(N)=O)[C@H](C)C3)c2C1
pIC50: 6.17
--
Chemical string: CCOC1CN(c2nc(-c3c(C)ccc4[nH]nc(C)c34)nc3c2CN(c2c(Cl)c(C4CC4)nn2C)CC3)C1
pIC50: 7.77
--
Chemical string: Cc1ccc(C(C)C)cc1N1CCc2nc(-c3cccc4[nH]cc(C)c34)nc(N3CCN(C4COC4)[C@H](C)C3)c2C1
pIC50: 5.24
--
Chemical string: Cc1ccc(F)cc1N1CCc2nc(-c3cccc4[nH]cc(C)c34)nc(N3CCN(CC(N)=O)[C@H](C)C3)c2C1
pIC50: 6.41
--
Chemical string: CO[C@@H]1CCN(c2nc(-c3c(C)cccc3C)nc3c2CN(c2cc(Cl)ccc2C)CC3)[C@H](C)C1
pIC50: 7.59

P = CO[C@@H]1CCN(c2nc(-c3c(C)cncc3C)nc3c2CN(c2cc(C(C)C)ccc2C)CC3)CC1(C)C
Q = [2H]C1([2H])c2c(C)cc(-c3cccc4[nH]cc(C)c34)nc2CCN1c1c(C)nn(CC)c1C
From the recorded data, which exceeds the other in pIC50: P or Q ? Give the label under which the chosen entry appears.
P
